Recorded PBM binding z-score, one value per entry.
Tested on: PPARg:RXRa 30nM:10nM, anti-RXR (NR concentration 30 nM, RXRa partner concentration 10 nM)
Assay: PBM binding z-score (relative to random genomic background probes); higher = stronger binding; sequences stand for … in GC…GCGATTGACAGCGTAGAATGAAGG
Recorded Endpoint: PBM binding z-score

sequence_text=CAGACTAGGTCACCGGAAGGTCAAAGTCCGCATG result=3.63
sequence_text=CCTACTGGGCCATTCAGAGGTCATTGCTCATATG result=0.777
sequence_text=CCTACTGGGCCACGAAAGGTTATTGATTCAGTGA result=0.563
sequence_text=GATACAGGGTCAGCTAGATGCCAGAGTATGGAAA result=0.884
sequence_text=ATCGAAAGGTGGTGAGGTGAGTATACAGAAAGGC result=0.347
sequence_text=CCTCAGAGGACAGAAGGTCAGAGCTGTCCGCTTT result=-0.132
sequence_text=TCTCGTAGATCAATAGAGGTTAAGAAAGTGCGCT result=2.83
sequence_text=ACTATTAGTTGACTTTGGGCAACCGATACGACGC result=0.326
sequence_text=TCAGACAGGTGAAGGTAACTCACGTACGCAGTCG result=3.55
sequence_text=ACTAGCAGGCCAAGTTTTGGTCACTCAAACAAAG result=-0.692
sequence_text=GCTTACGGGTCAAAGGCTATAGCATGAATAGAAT result=5.03
sequence_text=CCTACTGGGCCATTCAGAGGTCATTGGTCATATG result=1.1
sequence_text=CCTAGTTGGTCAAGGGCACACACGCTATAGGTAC result=0.541
sequence_text=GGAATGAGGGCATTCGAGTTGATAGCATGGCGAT result=0.439
sequence_text=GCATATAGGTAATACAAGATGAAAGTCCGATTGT result=0.378
sequence_text=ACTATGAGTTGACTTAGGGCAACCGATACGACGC result=0.371
sequence_text=TCTAGTTGGTCAAAGGTCACACAGTCGAAATGCG result=10
sequence_text=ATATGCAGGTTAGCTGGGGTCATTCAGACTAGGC result=0.768
sequence_text=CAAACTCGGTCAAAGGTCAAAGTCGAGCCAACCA result=11.8
sequence_text=GCTATTAGTTGAAAGGGCAAACGAATGATTCTCG result=2.73
sequence_text=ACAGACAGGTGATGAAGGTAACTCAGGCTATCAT result=-0.0108
sequence_text=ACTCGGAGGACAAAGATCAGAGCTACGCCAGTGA result=0.508
sequence_text=CCTACTGGACCAAAAAGGTCATTGATGCCGATAA result=1.31
sequence_text=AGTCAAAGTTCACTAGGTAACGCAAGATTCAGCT result=3.62
sequence_text=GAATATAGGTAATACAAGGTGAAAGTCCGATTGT result=0.987
sequence_text=TTACCAGGGTGAGCTGAGGTCGTTGATCCAACTC result=-0.0751
